Biological target: BCDIN3D (Homo sapiens, UniProt Q7Z5W3)
Sequence (Q7Z5W3 1-292): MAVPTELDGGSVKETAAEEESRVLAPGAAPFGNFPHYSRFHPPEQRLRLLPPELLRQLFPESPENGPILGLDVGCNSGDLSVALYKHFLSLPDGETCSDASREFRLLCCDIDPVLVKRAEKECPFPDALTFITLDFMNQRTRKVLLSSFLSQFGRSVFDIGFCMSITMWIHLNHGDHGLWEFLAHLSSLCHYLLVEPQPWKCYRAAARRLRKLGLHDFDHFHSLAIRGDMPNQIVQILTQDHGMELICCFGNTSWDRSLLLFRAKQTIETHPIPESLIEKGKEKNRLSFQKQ
Experiment: BCDIN3D IC50 RFMS (RapidFire) assay with mini-helix
Type: biochemical
Details: mini-helix substrate 0.2 μM, SAM 6 μM, 25 nM enzyme
pIC50: −log10 of the molar value.
measuredProperty: pIC50

Record excerpt, results attached:
compound="Cn1ncc2c(Nc3ccc(C(F)(F)F)cc3)nc(NCC(C)(N)c3ccccc3)nc21 (stereo not drawn) [Compound 4.19]" reported=7.44
compound="Cc1ccc(CNc2nc(NCC(N)c3ccccc3F)nc3c2cnn3C)cc1Cl (stereo not drawn) [Compound 5.12]" reported=6.46
compound="Cn1ncc2c(NC3CCCC3)nc(NC[C@H](N)c3ccccc3)nc21 [Compound 4.113]" reported=7.21
compound="Cn1ncc2c(NCc3cccc(Br)c3)nc(NCC3(N)CC3)nc21 [Compound 2.12]" reported=6.23
compound="CC(C)Oc1ccc(Nc2nc(NC[C@H](N)c3ccccc3)nc3c2cnn3C)cc1 [Compound 4.33]" reported=7.19

[I] Cn1ncc2c(NCC3CC34CC4)nc(NC[C@H](N)c3ccccc3)nc21 (stereo partly drawn) [Compound 4.60]
[II] Cn1ncc2c(NC3CC(F)C3)nc(NC[C@H](N)c3ccccc3)nc21 (stereo partly drawn) [Compound 4.88]
Request: Which numeric pIC50 is bigger, that of I or that of II ? Response format: the label of the selected entry.
Response: I
(I: 8.21, II: 6.95)
